- Test system: HHV-6 (Z-29 strain, variant B)
- test-protocol: Anti-HHV-6 activity in MOLT-3 cells (CPE and viral DNA slot blot)
- Assay type: cell-based, human herpes virus type 6 (HHV-6)
- run-parameters: Homo sapiens, MOLT-3, read-out: EC50 Based on CPE, MOLT-3 cells, Exp. 3
endpoint: EC50 (µg/mL)
Unit µg/mL implied. Number only.

INSERT INTO measurements (compound, meas_value) VALUES
  ('Cc1ccc(C)c(CS(=O)(=O)c2cccc[n+]2[O-])c1', 11.8);

## Input Would you mind telling me what EC50 value was observed for O=C(O)P(=O)(O)O [PFA, Foscarnet, reference compound] ?
## Output 6.5

## Input Would you mind telling me what EC50 value was observed for O=S(=O)(Cc1ccccc1)c1cccc[n+]1[O-] [Compound 6, 2-(Benzylsulfonyl)-pyridine-N-oxide] ?
## Output 12.9
